assay: NCI Yeast Anticancer Drug Screen. Data for the rad50 strain (AID 155);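 further: 0% = growth of vehicle-only cultures of the same strain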; details: S. cerevisiae rad50 strain growth inhibition; at 50.0 µM (retest, dose inferred, filed as 5.0); stronger effect = higher value
This is part of a sample that, as a whole, favours compounds with a hit. Of some 79,000 tested, about 15% had one in any assay.
Please assign a class to every record based on measured growth inhibition, with ranges low interval: < 20%; middle interval: ≥ 20% and < 80%; high interval: ≥ 80%

Lab note: sort "C[C@H](CCC(=O)O)[C@H]1CC[C@H]2[C@@H]3CC[C@@H]4C[C@H](O)CC[C@]4(C)[C@H]3C[C@H](O)[C@]12C" into the matching growth inhibition band. high interval

Lab note: sort "Cn1cnc([N+](=O)[O-])c1Sc1ccc(Cl)cc1" into the matching growth inhibition band. high interval

Lab note: sort "CC(=O)Nc1cccc(Oc2ccc(Br)cc2[N+](=O)[O-])c1" into the matching growth inhibition band. middle interval

Lab note: sort CC1CC2(C)ON=C(c3ccccc3)N2c2ccccc2S1 (configuration not stated) into the matching growth inhibition band. high interval

Lab note: sort "Nc1cc(F)c2c(c1F)C(=O)c1cc(F)ccc1-2" into the matching growth inhibition band. high interval

Lab note: sort "CN(CN(C)N=Nc1ccc(Cl)cc1)CN(C)N=Nc1ccc(Cl)cc1" into the matching growth inhibition band. low interval

Lab note: sort "COc1cc(C=Nc2ccc(Cl)cc2)ccc1OC(=O)c1ccccc1" into the matching growth inhibition band. low interval

Lab note: sort CCCCCCCCCC1OCC(O)CO1 (configuration not stated) (tested in a mixture with another compound) into the matching growth inhibition band. middle interval

Lab note: sort "O=C(CNc1cccc([N+](=O)[O-])c1)Nn1c(-c2ccccc2)nc2ccccc2c1=O" into the matching growth inhibition band. middle interval

Lab note: sort CC(C)(C)C1=NN=C2c3ccccc3C(=O)C21 (configuration not stated) into the matching growth inhibition band. middle interval

Lab note: sort "C/C(=N\OC(=O)c1ccccc1)[N+](=O)[O-]" into the matching growth inhibition band. high interval

Lab note: sort "Clc1ccc(C2=CCN3CC=C(c4ccc(Cl)cc4)C23)cc1" into the matching growth inhibition band. low interval

Lab note: sort CC1CCN(CCOC(=O)C(c2ccccc2)C2C=CCCC2)C1 (configuration not stated) into the matching growth inhibition band. middle interval

Lab note: sort "Cc1c(Cl)c(S(N)(=O)=O)cc2c1NC=NS2(=O)=O" into the matching growth inhibition band. low interval

Lab note: sort "CCCCCCCCCCCCCCCCC/C=N\NC(=O)CCCC(=O)N/N=C/CCCCCCCCCCCCCCCCC" into the matching growth inhibition band. low interval

Lab note: sort "CN(C)c1ccc(C2(Cl)c3ccccc3N(Cc3ccccc3)c3ccccc32)cc1" into the matching growth inhibition band. high interval

Lab note: sort "C/C(=N\NC(N)=S)c1ccc(Oc2ccccc2)cc1" into the matching growth inhibition band. middle interval

Lab note: sort CCOC(=O)CC1C(=O)N(c2nc(-c3ccc(Br)cc3)cs2)N=C1C (configuration not stated) into the matching growth inhibition band. low interval

Lab note: sort "Cc1cccc(Cl)c1NC(=S)Nc1cccc(C(F)(F)F)c1" into the matching growth inhibition band. low interval

Lab note: sort "Cc1cc2c(c([N+](=O)[O-])c1C)C(=O)C(Br)=C(N)C2=O" into the matching growth inhibition band. high interval

Lab note: sort NC(=O)N/N=C/C(O)C(O)C(O)C(O)CO (configuration not stated) into the matching growth inhibition band. middle interval

Lab note: sort "COc1ccc(/C=C2\N=C(c3ccco3)OC2=O)cc1Br" into the matching growth inhibition band. low interval

----------
Please respond with reported growth inhibition for every item in the list.
experiment: NCI Yeast Anticancer Drug Screen. Data for the rad50 strain (AID 155);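 further: 0% = growth of vehicle-only cultures of the same strain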; conditions: S. cerevisiae rad50 strain growth inhibition; at 50.0 µM (retest, dose inferred, filed as 5.0); stronger effect = higher value
The panel holds about 79,000 compounds, 15% with a hit somewhere; the sample as a whole holds those more often.
Give the value in % but do not write % after it.

Can you look up the measured growth inhibition of "CC(/C=C/C(O)=C1/C(=O)CNC1=O)=C\[C@@H](C)[C@H]1O[C@@]2(C)O[C@H](C(=O)[C@@H]3O[C@@]32C)[C@@H]1C" for me? 99

Can you look up the measured growth inhibition of "O=C1/C(=C/c2ccc([N+](=O)[O-])cc2)CNC/C1=C\c1ccc([N+](=O)[O-])cc1" for me? 99

Can you look up the measured growth inhibition of "O=C1c2ccccc2-c2cc(S)c([N+](=O)[O-])cc21" for me? 12

Can you look up the measured growth inhibition of "CCCCN1C(=O)C[C@H]2[C@@H]3CCc4cc(OCCN5CCCC5)ccc4[C@H]3CC[C@]2(C)C1=O" for me? 75

Can you look up the measured growth inhibition of "O=C1C(CCl)=CS(=O)(=O)c2ccccc21" for me? 99

Can you look up the measured growth inhibition of CCCCC(CCc1ccccc1[N+](=O)[O-])(C(C)=O)C(=O)OCC (stereo not given) for me? -15

Can you look up the measured growth inhibition of "CCCCCCCCCCSCCO" for me? 88

Can you look up the measured growth inhibition of "O=c1oc2ccccc2c(O)c1/C=N/C(=S)NCc1ccccc1" for me? -15

Can you look up the measured growth inhibition of "COc1ccc(CSC(=S)Nc2ccc(Cl)cc2Cl)cc1" for me? 98

Can you look up the measured growth inhibition of "CCC(CC)C(c1ccc(O)cc1)c1ccc(O)cc1" for me? 99

----------
experiment: NCI Yeast Anticancer Drug Screen. Data for the sgs1 mgt1 strain (AID 161);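 further: 0% = growth of cultures given vehicle only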; conditions: S. cerevisiae sgs1 mgt1 strain, at 5.0 µM (retest, dose inferred, filed as 0.5)
This is part of a sample that, as a whole, favours compounds with a hit. Of some 79,000 tested, about 15% had one in any assay. Activity calls are given as the source filed them. Cut-off read from the data, not from the text of the source: active = growth inhibition above about 70%; inactive = the rest.
Respond with a class label; see T (active), F (inactive)

Each molecule tested received a call. Report the one for "CC(=O)Nc1ccc2c(c1)Cc1cccc(F)c1-2" . F

Each molecule tested received a call. Report the one for CCOC(=O)C1=C(N)OC(c2ccccc2)=C(C#N)C1c1ccc(C)cc1 (stereo unspecified) . F

Each molecule tested received a call. Report the one for CC(=O)Nc1ccc2c(c1)C(S)c1ccccc1-2 (stereo unspecified) . F

Each molecule tested received a call. Report the one for Cc1cc2nc3n(c2cc1C)C(c1c(F)cccc1F)SC3 (stereo unspecified) . F

Each molecule tested received a call. Report the one for "Cc1ccc(NC(=O)CCC(=O)CC(=O)C(C)(C)C)cc1C" . F

Each molecule tested received a call. Report the one for "Clc1ccccc1/C=C/c1ccccn1" . F

Each molecule tested received a call. Report the one for O=C1NN=C(c2ccc(Cl)cc2)CC1C1C(=O)N(c2ccccc2)N=C1c1ccccc1 (stereo unspecified) . T

Each molecule tested received a call. Report the one for "NN(Cc1ccccc1)c1ccccc1" . F

Each molecule tested received a call. Report the one for O=C1CC(O)C=C1Nc1ccc(Cl)cc1 (stereo unspecified) . F

Each molecule tested received a call. Report the one for CC(/C=C1\CCC(CN(C)C)C1=O)c1cccc(Br)c1 (stereo unspecified) . F

Each molecule tested received a call. Report the one for O=C(Nc1ccc([N+](=O)[O-])cc1[N+](=O)[O-])C(=O)C(C(=O)c1ccc(Cl)c(Cl)c1)C1OC(=O)c2ccccc21 (stereo unspecified) . F

----------
assay: NCI Yeast Anticancer Drug Screen. Data for the sgs1 mgt1 strain (AID 161);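 further: 0% = growth of cultures given vehicle only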; conditions: S. cerevisiae sgs1 mgt1 strain, at 5.0 µM (retest, dose inferred, filed as 0.5), stronger effect = higher value
Compounds without any hit were thinned out: in the full panel of roughly 79,000, 15% have a hit.
Measured quantity: growth inhibition (%)
Give the value in % but do not write % after it.

Can you look up the measured growth inhibition of CC1(C)OC2C(COC(c3ccccc3)(c3ccccc3)c3ccccc3)OC(n3cnc4c(=O)[nH]cnc43)C2O1 (stereo unspecified) for me? 24

Can you look up the measured growth inhibition of "CS(=O)(=O)c1ccc(C[N+]23CN4CN(CN(C4)C2)C3)cc1" for me? -20

Can you look up the measured growth inhibition of "FC(F)(F)c1ccc(Cl)c(NC(=S)SC2CCCCC2)c1" for me? 7

Can you look up the measured growth inhibition of "CC(C)c1ccc(O)c(O)c(=O)c1" for me? 70

Can you look up the measured growth inhibition of COC1CC(C)(NC(C)=O)C2OC(c3ccccc3)OCC2O1 (stereo unspecified) for me? -7

Can you look up the measured growth inhibition of "Cc1[nH]c2ccccc2c1SCc1ccccc1" for me? 0

Can you look up the measured growth inhibition of "COc1cc(Cc2n[nH]c(=S)n2-c2ccccc2)c(S(N)(=O)=O)cc1OC" for me? 9

Can you look up the measured growth inhibition of "CCN(CC)CCC(=O)/C=C/c1ccc(Cl)c(Cl)c1" for me? 16

Can you look up the measured growth inhibition of C/C(=C\N1CCN(c2ccc(Cl)cc2)C(C)C1)C(=O)c1ccccc1 (stereo unspecified) for me? 15

Can you look up the measured growth inhibition of "CC(=O)CC(C)=NCCN=C(C)CC(C)=O.[Pd]" for me? 0

Can you look up the measured growth inhibition of COc1ccc2c(c1)CCC(N1CCCC(O)C1)C2 (stereo unspecified) for me? 12

The origin of these recorded values is PubChem BioAssay (NCI).
